Test: AUC (0 to infinity) in NMRI mouse at 1 mg/kg, sc
Details: plasma
MEASURED_QUANTITY: AUC(0-inf) (µg·h/mL)
Field: numeric (µg·h/mL). Do not append units.

# STRUCTURE_AS_SMILES, UNIT_TEXT, VALUE_OBSERVED
measured = [
    ("N=C(N)c1ccc(Oc2cc(NC(=O)[C@H]3CC[C@H](N)CC3)cc(Oc3ccc(C(=N)N)cc3)c2)cc1", "µg·h/mL", 1.85),
]

Proceeding to the next compound to report its AUC(0-inf).
Report AUC(0-inf) for N=C(N)c1ccc(Oc2cc(Oc3ccc(C(=N)N)cc3)cc(C(=O)N[C@H]3CC[C@H](N)CC3)c2)cc1 please.
1
